System: BRIN-BD11 cells
Assay: Acute insulin release from BRIN-BD11 cells cultured overnight with forskolin, PMA or pertussis toxin
Assay type: cell-based, rat
Conditions: 0.1 μg/ml pertussis toxin overnight (G-protein pathway); acute test at 5.6 mM glucose
Excerpt: FIG. 8 illustrates the dependence of the stimulatory effects of 1653.2 Da purified peptide (peak 1.10) from Agalychnis calcarifer on intracellular pathways mediated by protein kinase A (forskolin), protein kinase C (PMA) or pertussis toxin-sensitive G-proteins. […]
REPORTED_ENDPOINT: Stimulatory effect on insulin secretion in cells cultured overnight with pertussis toxin

Some substances with known Stimulatory effect on insulin secretion in cells cultured overnight with pertussis toxin results, for comparison:
BRIN-BD11 cells Stimulatory effect on insulin secretion in cells cultured overnight with pertussis toxin of GIFSKLAGKKLKNLLISGLKNVGKEVGMDVVRTGIDIAGCKIKGEC [Peptide 5.4, peptide from Rana saharica matching Esculentin-1B] is abolished

Stimulatory effect on insulin secretion in cells cultured overnight with pertussis toxin for BRIN-BD11 cells with input GIFSKFGRKKIKNLLISGLKNVGKEVGMDVVRTGIDIAGCKIKGEC [Peptide 5.1, peptide from Rana saharica, 98% ID to Esculentin-1] equals abolished

Tested on BRIN-BD11 cells, the item RRKPLFPFIPRPK [Peptide 1.10, 13 amino acid 1653.2 Da purified peptide from Agalychnis calcarifer] showed Stimulatory effect on insulin secretion in cells cultured overnight with pertussis toxin equal to did not affect

Measured Stimulatory effect on insulin secretion in cells cultured overnight with pertussis toxin (BRIN-BD11 cells), entry Pyr-QRLGHQWAVGHLM-amidated (N-terminal pyroglutamate, C-terminal amide) [Peptide 21, peptide from Bombina variegata, (His)^6Bombesin, 93% ID to bombesin] : did not affect

Let us move to another entry and its Stimulatory effect on insulin secretion in cells cultured overnight with pertussis toxin.
The measured Stimulatory effect on insulin secretion in cells cultured overnight with pertussis toxin that GKPFYPPPIYPEDM [Peptide 24, peptide from Bombina variegata, 57% ID to tryptophyllin] showed for BRIN-BD11 cells is did not affect

----------
Tested on: BRIN-BD11 cells
Experiment: Acute insulin release from BRIN-BD11 cells cultured overnight with forskolin, PMA or pertussis toxin
Assay type: cell-based, rat
Settings: 10 nM PMA overnight (protein kinase C pathway); acute test at 5.6 mM glucose
Excerpt: FIG. 8 illustrates the dependence of the stimulatory effects of 1653.2 Da purified peptide (peak 1.10) from Agalychnis calcarifer on intracellular pathways mediated by protein kinase A (forskolin), protein kinase C (PMA) or pertussis toxin-sensitive G-proteins. […]
REPORTED_ENDPOINT: Stimulatory effect on insulin secretion in cells cultured overnight with PMA

Study these solved cases before continuing.
Observed Stimulatory effect on insulin secretion in cells cultured overnight with PMA, BRIN-BD11 cells, GIFSKFGRKKIKNLLISGLKNVGKEVGMDVVRTGIDIAGCKIKGEC [Peptide 5.1, peptide from Rana saharica, 98% ID to Esculentin-1] : abolished

# Stimulatory effect on insulin secretion in cells cultured overnight with PMA measured on BRIN-BD11 cells for item GKPFYPPPIYPEDM [Peptide 24, peptide from Bombina variegata, 57% ID to tryptophyllin] = did not affect

Item RRKPLFPFIPRPK [Peptide 1.10, 13 amino acid 1653.2 Da purified peptide from Agalychnis calcarifer] was tested on BRIN-BD11 cells; the reported Stimulatory effect on insulin secretion in cells cultured overnight with PMA is did not affect

Entry Pyr-QRLGHQWAVGHLM-amidated (N-terminal pyroglutamate, C-terminal amide) [Peptide 21, peptide from Bombina variegata, (His)^6Bombesin, 93% ID to bombesin] , BRIN-BD11 cells data, Stimulatory effect on insulin secretion in cells cultured overnight with PMA value: did not affect

More entries:
Summary: GIFSKLAGKKLKNLLISGLKNVGKEVGMDVVRTGIDIAGCKIKGEC [Peptide 5.4, peptide from Rana saharica matching Esculentin-1B] , BRIN-BD11 cells, Stimulatory effect on insulin secretion in cells cultured overnight with PMA = abolished

Entry source: patent US20080058269A1
